molecular target: Human α2δ-1 subunit of Cav2.2 calcium channel (Homo sapiens, UniProt P54289); experiment: biochemical; assay type: binding
Sequence (P54289 25-1103): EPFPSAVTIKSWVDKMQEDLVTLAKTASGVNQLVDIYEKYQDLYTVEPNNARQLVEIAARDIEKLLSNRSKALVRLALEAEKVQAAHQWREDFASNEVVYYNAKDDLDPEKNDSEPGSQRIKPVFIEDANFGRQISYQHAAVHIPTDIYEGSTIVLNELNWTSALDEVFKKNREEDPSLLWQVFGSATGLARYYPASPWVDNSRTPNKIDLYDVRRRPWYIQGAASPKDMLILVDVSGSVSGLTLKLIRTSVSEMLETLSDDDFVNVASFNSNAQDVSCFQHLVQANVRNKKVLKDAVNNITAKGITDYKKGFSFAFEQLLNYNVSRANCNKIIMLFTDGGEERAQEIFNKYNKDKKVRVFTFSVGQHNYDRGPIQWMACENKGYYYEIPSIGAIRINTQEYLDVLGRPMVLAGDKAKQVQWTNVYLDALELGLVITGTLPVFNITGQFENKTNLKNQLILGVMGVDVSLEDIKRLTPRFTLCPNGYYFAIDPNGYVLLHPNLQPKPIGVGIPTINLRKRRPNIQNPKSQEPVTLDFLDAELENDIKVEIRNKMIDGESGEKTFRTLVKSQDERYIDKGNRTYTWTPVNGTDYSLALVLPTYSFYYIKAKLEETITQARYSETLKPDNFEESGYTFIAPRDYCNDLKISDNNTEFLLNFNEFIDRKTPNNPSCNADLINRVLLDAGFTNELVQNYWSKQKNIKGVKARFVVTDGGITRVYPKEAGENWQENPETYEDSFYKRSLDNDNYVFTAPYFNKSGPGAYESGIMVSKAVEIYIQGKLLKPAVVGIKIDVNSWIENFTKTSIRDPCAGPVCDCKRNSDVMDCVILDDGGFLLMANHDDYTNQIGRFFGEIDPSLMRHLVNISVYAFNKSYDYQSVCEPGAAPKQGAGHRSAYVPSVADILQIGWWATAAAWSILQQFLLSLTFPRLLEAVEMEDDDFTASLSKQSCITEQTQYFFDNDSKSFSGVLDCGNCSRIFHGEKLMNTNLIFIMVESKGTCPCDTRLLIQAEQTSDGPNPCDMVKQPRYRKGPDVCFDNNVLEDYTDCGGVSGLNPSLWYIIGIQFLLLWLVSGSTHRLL
Readout Kind: Ki

State the recorded Ki for this entry: CCC[C@@H](c1nc2ccc(Cl)cc2c(=O)n1CC)N1CCN[C@H](C)C1 [Example 102]
> 5000 nM

State the recorded Ki for this entry: CCCC(c1nc2ccc(N3CCCC3)cc2c(=O)n1CC)N1C[C@@H](C)N[C@@H](C)C1 (stereo partly shown) [Example 138]
< 500 nM

State the recorded Ki for this entry: CCC[C@H](c1nc2c(F)cc(Cl)cc2c(=O)n1C)N1CCN[C@@H](C)C1 [Example 223]
> 5000 nM

State the recorded Ki for this entry: CCC[C@H](c1nc2ccc(Br)cc2c(=O)n1CC)N1CCN(C)[C@H](C)C1 [Example 109]
< 500 nM

---

target: UniProt P35372; test: biochemical; format: binding
Sequence (P35372 whole entry): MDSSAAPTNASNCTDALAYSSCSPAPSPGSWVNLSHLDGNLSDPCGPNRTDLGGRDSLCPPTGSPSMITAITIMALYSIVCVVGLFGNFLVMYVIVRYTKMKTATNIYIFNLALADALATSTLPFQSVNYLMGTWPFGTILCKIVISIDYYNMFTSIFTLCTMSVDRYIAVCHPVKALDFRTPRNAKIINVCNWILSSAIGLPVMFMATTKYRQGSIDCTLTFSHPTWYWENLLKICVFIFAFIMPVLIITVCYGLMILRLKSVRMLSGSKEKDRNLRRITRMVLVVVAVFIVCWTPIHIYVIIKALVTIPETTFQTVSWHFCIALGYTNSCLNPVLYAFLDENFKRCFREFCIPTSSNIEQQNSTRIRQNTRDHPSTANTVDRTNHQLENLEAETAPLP
I'd be grateful if you could share measured Ki for these entries.

Which Ki is reported with UniProt P35372 for this entry: CCCC(c1nc2cnccc2c(=O)n1CCOC)N1C[C@@H](C)N[C@@H](C)C1 (stereo partly drawn) ?
> 0.5 µM

Which Ki is reported with UniProt P35372 for this entry: CCCC(c1nc2ccc(N3CC=C(c4ccccc4O)CC3)cc2c(=O)n1CC)N1C[C@@H](C)N[C@@H](C)C1 (stereo partly drawn) ?
> 0.5 µM

Which Ki is reported with UniProt P35372 for this entry: `CCC[C@@H](c1nc2c(F)cc(OC)cc2c(=O)n1CC)N1CCN[C@@H](C)C1` ?
> 0.5 µM

Which Ki is reported with UniProt P35372 for this entry: `CCC[C@H](c1nc2ccccc2c(=O)n1C)N1C[C@@H](C)N[C@@H](C)C1` ?
> 0.5 µM

Which Ki is reported with UniProt P35372 for this entry: `CCC[C@H](c1nc2cc(F)c(Cl)cc2c(=O)n1C)N1CCN[C@@H](C)C1` ?
< 0.1 µM

Which Ki is reported with UniProt P35372 for this entry: `CCC[C@@H](c1nc2ccc(Br)cc2c(=O)n1CC)N1CCN[C@@H](C)C1` ?
> 0.5 µM

Which Ki is reported with UniProt P35372 for this entry: CCCC(c1nc2cccnc2c(=O)n1CC)N1CCNCC1 (stereo not drawn) ?
> 0.5 µM

Which Ki is reported with UniProt P35372 for this entry: CCCC(c1nc2ccc(O)cc2c(=O)n1CC)N1C[C@@H](C)N[C@@H](C)C1 (stereo partly drawn) ?
> 0.5 µM

Which Ki is reported with UniProt P35372 for this entry: `CCC[C@@H](c1nc2ccc(Br)cc2c(=O)n1CC)N1CCN[C@@H](CO)C1` ?
> 0.5 µM

Which Ki is reported with UniProt P35372 for this entry: `CCC[C@@H](c1nc2ccc(Br)cc2c(=O)n1CC)[C@@H]1CCN[C@@H](C)C1` ?
> 0.5 µM

Which Ki is reported with UniProt P35372 for this entry: CCCC(c1nc2cc(C(=O)OC)ccc2c(=O)n1CC)N1C[C@@H](C)N[C@@H](C)C1 (stereo partly drawn) ?
0.1 to 0.5 µM

Which Ki is reported with UniProt P35372 for this entry: `CCC[C@@H](c1nc2ncc(Br)cc2c(=O)n1CC1CC1)N1CCN[C@@H](C)C1` ?
> 0.5 µM

Which Ki is reported with UniProt P35372 for this entry: CCCC(c1nc2cc(NCC)ccc2c(=O)n1CC)N1C[C@@H](C)N[C@@H](C)C1 (stereo partly drawn) ?
> 0.5 µM

Which Ki is reported with UniProt P35372 for this entry: CCCC(c1nc2cc(C)c(Br)cc2c(=O)n1CC)N1CCNCC1 (stereo not drawn) ?
> 0.5 µM

Which Ki is reported with UniProt P35372 for this entry: `CCC[C@H](c1nc2ccccc2c(=O)n1CCOC)N1C[C@@H](C)N[C@@H](C)C1` ?
> 0.5 µM

Which Ki is reported with UniProt P35372 for this entry: `CCC[C@@H](c1nc2c(F)cc(Br)cc2c(=O)n1CC)N1CCNCC1` ?
> 0.5 µM

Which Ki is reported with UniProt P35372 for this entry: `CCC[C@H](c1nc2ncc(Br)cc2c(=O)n1CC1CC1)N1CCN[C@@H](C)C1` ?
> 0.5 µM

Which Ki is reported with UniProt P35372 for this entry: `CCC[C@@H](c1nc2c(F)cc(Br)cc2c(=O)n1CC)N1CCN[C@H](C)C1` ?
> 0.5 µM

Which Ki is reported with UniProt P35372 for this entry: `CCC[C@H](c1nc2ccc(Br)cc2c(=O)n1CC)[C@@H]1CCNCC1(F)F` ?
> 0.5 µM

Which Ki is reported with UniProt P35372 for this entry: `CCC[C@H](c1nc2ncc(Br)cc2c(=O)n1CC)N1CCN[C@@H](C)C1` ?
> 0.5 µM

Which Ki is reported with UniProt P35372 for this entry: `CCC[C@@H](c1nc2ccc(Br)cc2c(=O)n1CC)[C@@H]1CCNCC1(F)F` ?
> 0.5 µM

Which Ki is reported with UniProt P35372 for this entry: CCCC(c1nc2ccc(CN(C)Cc3ccccc3)cc2c(=O)n1CC)N1C[C@@H](C)N[C@@H](C)C1 (stereo partly drawn) ?
> 0.5 µM

Which Ki is reported with UniProt P35372 for this entry: CCCC(c1nc2ccc(Br)cc2c(=O)n1CCC(=O)O)N1C[C@@H](C)N[C@@H](C)C1 (stereo partly drawn) ?
0.1 to 0.5 µM

Which Ki is reported with UniProt P35372 for this entry: `CCC[C@H](c1nc2c(F)cc(OC)cc2c(=O)n1CC)N1CCNCC1` ?
0.1 to 0.5 µM

Which Ki is reported with UniProt P35372 for this entry: `CCC[C@H](c1nc2cc(F)c(OC)cc2c(=O)n1CC)N1CCN[C@@H](C)C1` ?
> 0.5 µM

Which Ki is reported with UniProt P35372 for this entry: `CCC[C@H](c1nc2ccc(Br)cc2c(=O)n1CC)N1CCN[C@@H](CO)C1` ?
> 0.5 µM

Which Ki is reported with UniProt P35372 for this entry: CCCC(c1nc2ccc(Br)c(F)c2c(=O)n1CC)N1C[C@@H](C)N[C@@H](C)C1 (stereo partly drawn) ?
> 0.5 µM

Which Ki is reported with UniProt P35372 for this entry: CCCC(c1nc2cc(OC)ccc2c(=O)n1CC)N1C[C@@H](C)N[C@@H](C)C1 (stereo partly drawn) ?
> 0.5 µM

Which Ki is reported with UniProt P35372 for this entry: `CCC[C@@H](c1nc2cc(F)c(Br)cc2c(=O)n1C)N1CCN[C@@H](C)C1` ?
> 0.5 µM

Which Ki is reported with UniProt P35372 for this entry: CCCC(c1nc2ccccc2c(=O)n1C)N1C[C@@H](C)N[C@@H](C)C1 (stereo partly drawn) ?
> 0.5 µM

Which Ki is reported with UniProt P35372 for this entry: `CCC[C@H](c1nc2cnc(C(F)(F)F)cc2c(=O)n1CC)N1CCN[C@@H](C)C1` ?
> 0.5 µM

Which Ki is reported with UniProt P35372 for this entry: `CCC[C@H](c1nc2cc(F)c(Cl)cc2c(=O)n1CC)N1CCN[C@@H](C)C1` ?
0.1 to 0.5 µM

Which Ki is reported with UniProt P35372 for this entry: CCCC(c1nc2ccc(Br)c(C)c2c(=O)n1CC)N1CCNCC1 (stereo not drawn) ?
0.1 to 0.5 µM
